Molecular target: T1, apical domain of human CD71 (human, UniProt P02786 189-383, limits assumed)
T1 construct: domain: apical domain; Screen 4 panned on human apical domains, the ELISA text says only 'apical domain'
T1 sequence (P02786 189-383 limits assumed): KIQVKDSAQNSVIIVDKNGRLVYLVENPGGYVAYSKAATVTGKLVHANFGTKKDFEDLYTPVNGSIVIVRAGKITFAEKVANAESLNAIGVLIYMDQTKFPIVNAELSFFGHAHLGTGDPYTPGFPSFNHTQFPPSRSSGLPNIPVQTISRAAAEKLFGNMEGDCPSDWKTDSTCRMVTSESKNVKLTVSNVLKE
Experiment: primary ELISA, RLU over HSA
Test readout: Apical domain:HSA
# answer = number (no unit)

Binder	Test result
CD71-binding FN3 domain of SEQ ID NO: 533 (designed binder) MLPAPKNLVVSRVTEDSARLSWTAPDAAFDSFFIGYLEPQPPGEAINLFVPGSERSYDLTGLKPGTEYNVTIQGVKGGFPSMPLSAIFTT	241

Data request: Any idea what Apical domain:HSA was measured for CD71-binding FN3 domain of SEQ ID NO: 523 (designed binder) MLPAPKNLVVSRVTEDSARLSWTAPDAAFDSFFIGYLEPQPPGEAIDLLVPGSERSYDLTGLKPGTEYNVTIQGVKGGFPSEPLTAEFTT ?
Data returned: 300
